assay: amyloid nucleation score (Sup35N fusion, yeast selection) (log enrichment); library NNK2; higher = more nucleation; inactive = no reads after selection;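 note: zero at mode of non-aggregating sequences after 7 days selection at 30°C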
Categorize each record by its amyloid nucleation score using class A = under -0.04, class B = from -0.04 up to 0.6, class C = 0.6 and over

GLVRERIDTAHPRSTSYC class B
TFMKGTVIT class C
DCAWNFWFSLVYRLVISGHS class A
IRMLLYCMESELKGASVEAG class B

(Q) Class for DWNTWTSNFLALTGAWTGLG ?
(A) class B

(Q) Category of FVVQFMGADHAFKERFGGH , please.
(A) class C

(Q) # bin lookup: classify LLRMLSYR by its amyloid nucleation score
(A) class B

(Q) // bin(item) where item = VFNSTFANLW
(A) class C

(Q) Which class is correct for the following substance? GRRDNMVRCKRLCRWRVWTA
(A) class B

(Q) Would you mind sorting ITKNHSVDDRCTMMYFYLCV into the appropriate category?
(A) class C

(Q) // bin(item) where item = VWEIEGEPPWVQSVCSWDPR
(A) class C

(Q) Which band does RFLTCGNFMR fall in?
(A) class B

(Q) Given LNSQSVFKC , name the class its amyloid nucleation score places it in.
(A) class A

(Q) Sort LLGESRGVDSLQTTLWRSRR into one of the categories.
(A) class B

(Q) Band for WPGRRRYAMCVMTKRRGGLE ?
(A) class B

(Q) Could you tell me which band FIMYFYKRTNYNFIKYHASA belongs to?
(A) class C

(Q) Lab log: WLVIPWRCSNDRHIWLWELQ — assign amyloid nucleation score category
(A) class C

(Q) Bin? MNLPKFNSYLMDSANARASP
(A) class B

(Q) # classify by amyloid nucleation score band: RFVIVIPQFYYVYFLRRSWT
(A) class A

(Q) Kindly identify the class of LKMKFSYDWGVDTILLCRKA .
(A) class B

(Q) Kindly identify the class of QFRLQWGLLVQCAGDSVLVM .
(A) class A

(Q) Which class does GPCSSGSDSTCQMPCLAWPG fall in?
(A) class C

###

experiment: amyloid nucleation score (Sup35N fusion, yeast selection) (log enrichment); library NNK2; higher = more nucleation; inactive = no reads after selection
attributeMeasured: amyloid nucleation score
Give bare numbers.

Hi! Can you tell me amyloid nucleation score for each of these substances?
1. LGDVYMWIFKKLLWVNHWDV
2. FGSIFNSYVNEWRSLLCNID
3. FIQVSHCYAKMPYTTVTPGA

(A)
1. -0.033
2. -1.67
3. -0.191

For each of the substances below, state amyloid nucleation score.
1. NLTMYILRNYTCIMYYIKVC
2. SFFVIGW

(A)
1: -0.208; 2: 0.102

###

assay: amyloid nucleation score (Sup35N fusion, yeast selection) (log enrichment); library NNK3; higher = more nucleation; inactive = no reads after selection
attributeMeasured: amyloid nucleation score

ASVPAN inactive
IYLLGMYIKACSG inactive
MVYGVSAVEVKSSLVGWVVA inactive
FYLGEYETLFVKDIRGDSVP -0.97
IGYLDFVHSIENVVYNWGAS inactive

Attention now turns to another entry.
(Q) Sample RVWHLYTMV — what was its amyloid nucleation score?
(A) -1.11

###

experiment: amyloid nucleation score (Sup35N fusion, yeast selection) (log enrichment); library NNK1; higher = more nucleation; inactive = no reads after selection
Dear colleague, classification is by amyloid nucleation score, with ranges listed here: LOW (below -0.2), MID (-0.2 to below 0.6), HIGH (0.6 or more)

Answered cases to consult:
SGEVLRPFAVLC MID
NAFSYTGRYIGLPRELGVLR HIGH
GEFTRGDTSKWFLLDK MID
ENDYITCQMSQSVQNVVVVK HIGH

(Q) Form: Item = SITVKKES ; Class = ?
(A) MID

(Q) Tag the class for PFCRSRHAGHSRSLQVEKFM
(A) MID

###

Kindly supply the reported amyloid nucleation score values for the records listed here.
assay: amyloid nucleation score (Sup35N fusion, yeast selection) (log enrichment); library NNK2; higher = more nucleation; inactive = no reads after selection
Answers are plain numbers.

Worked examples follow.
IGLTLHMRRVVGAKSFKMPL 0.29
FVTRGSVAMTQVGYNTVIRM 5.64
TMCWPMILK -0.072

// each sequence listed below needs its amyloid nucleation score
1. FMDRFLSWFCHE
2. RCEAAMWMLASYRVCVTLSC

(A)
[1.26, -0.525]

###

experiment: amyloid nucleation score (Sup35N fusion, yeast selection) (log enrichment); library NNK2; higher = more nucleation; inactive = no reads after selection
attributeMeasured: amyloid nucleation score
Answers are plain numbers.

Consider the reported amyloid nucleation score for these sequences:
ELCGLMAEPYRSHILGCGWT 3.67
FRNTWFCFLLKLLTS -0.818
QCGWDFLFIVMCKFVQRRCS 0.35

Lab note: next sequence to report on.
(Q) Dear colleague, I am looking for the recorded amyloid nucleation score of the following sequence: YCGKTIQCSRRAPTAEDLGM
(A) 2.76

###

assay: amyloid nucleation score (Sup35N fusion, yeast selection) (log enrichment); library NNK3; higher = more nucleation; inactive = no reads after selection
attributeMeasured: amyloid nucleation score

HLWTFEITSTGYL inactive
LTTESNLHVCVRRVGQLHLA inactive
PFHGCPTHDCFNAGILALTV inactive
STQTGASRRENSPMGLGYNS inactive
TRWSVFKLRADDRNMQASKS inactive

Need amyloid nucleation score for each of these substances.
1. RMLPRLQDAR
2. SYGNCSSMHGPVKMLRICHQ
3. TKYFRSNNPFHLVYTYIYLT
4. MCFEVLHACRYFVRHSSQRI
5. MIFLRIFYGLLGNSQFIIFL
6. RDSFTVIVSSSSPMPKLVPE
7. LENGVHVRRSIEF

(A)
inactive
inactive
inactive
inactive
0.331
inactive
inactive

Hey, can you go through the list below and give me amyloid nucleation score for every item?
1. SSACYTVLPGKAPTPAYPLL
2. LTLCNPPTTRRTNATFLHCL
3. YFQTIVFRGTSGYCIVNQQV
4. IYSVTMTRHVFFNGFQVQLV
5. NVFIHLFTILALGFHL
6. AHVSLVSLRKRLPYFGFASV
7. YAFLTYFSKVIDSVF

(A)
1: inactive; 2: inactive; 3: 1.97; 4: inactive; 5: inactive; 6: inactive; 7: 1.33

# return amyloid nucleation score for each item in the list
1. WVLDSERQMANSLWSGGGLA
2. VVVSSYNCVLVQVVICKWGR
3. NRCKLNVAGHLCANRTRRFR
4. HEKSIRVESMAVLIRPVTRS
5. TAIRIMMRV
6. ANMCNCKAIHRFNKFNICSR

(A)
inactive
0.192
inactive
inactive
inactive
inactive

// each substance listed below needs its amyloid nucleation score
1. CFLSQLNTSDACVCLRFGWG
2. RDEASLSYMSPCRYDYCNCF
3. YIVWCHVVWLADCR

(A)
1. inactive
2. 0.003
3. inactive

###

assay: amyloid nucleation score (Sup35N fusion, yeast selection) (log enrichment); library NNK1; higher = more nucleation; inactive = no reads after selection
Kindly return Met if reported amyloid nucleation score is no lower than -0.4; return Not met if it is lower.

YSIYRINFPVIALHFTGHCV Not met
YVVFMYFAF Met
QGVGSDVTSIYTV Not met
RFCRSIAFA Met
SECSINRWF Met

(Q) Quick check, amyloid nucleation score >= -0.4? DSVLQDTLIMWCSMKTVSPS
(A) Met

(Q) hey, is amyloid nucleation score for this one >= -0.4? CGDGPHHVLCLSVVDICVGC
(A) Not met

(Q) Quick check: does SVLIVLMHGMGYQQKTYCRF have amyloid nucleation score greater than or equal to -0.4?
(A) Met

(Q) Record QVTTSPQ ; criterion: amyloid nucleation score no lower than -0.4. Met?
(A) Met

###

assay: amyloid nucleation score (Sup35N fusion, yeast selection) (log enrichment); library NNK3; higher = more nucleation; inactive = no reads after selection
attributeMeasured: amyloid nucleation score

VIVICFIFLMNVIPIQACWT inactive
YSGTKY inactive
TLSVLFSVSAAAFGVHRIQD 1.09
RLSLVFRHIAFTS inactive
LNNSTSCEVGKNVCISFKWA 2.22

(Q) // query amyloid nucleation score value for entry RGTMLLRNISIVCQLYPLST
(A) inactive

###

test: amyloid nucleation score (Sup35N fusion, yeast selection) (log enrichment); library NNK1; higher = more nucleation; inactive = no reads after selection
Please use true (1) whenever amyloid nucleation score is not below 0.6, and false (0) whenever it is.

SCFPLLRQFAGWLSWSRT true (1)
IWCSCAYRGVGMSTGFAIIY true (1)
GVMPNCKKNLHEPALERFNT false (0)
SGKGMPNMNIPFHMWYQICY false (0)
NLKRPNELWINIETFIRSLH true (1)
SANCIWFFL true (1)
IYRSMNRLVVQEGYAFIGGG true (1)
EYSVYDRYRPGNCCRTSRMD false (0)

(Q) Is it the case that LVHPSWN has amyloid nucleation score reaching or exceeding 0.6?
(A) false (0)

(Q) amyloid nucleation score >= 0.6 for IFFYRYYNSHASSGERQNGR ?
(A) false (0)

(Q) Could you please find out whether RFRYDTVMMNMFLNRVSFGG has amyloid nucleation score that meets 0.6 or exceeds it?
(A) true (1)

(Q) Is the recorded value of amyloid nucleation score equal to or greater than 0.6 for this substance? DNLNYEMHVLWMCNL
(A) true (1)

(Q) Quick check, amyloid nucleation score >= 0.6? LSLSYPYFTFAHSVEMRESI
(A) true (1)
